Measured pIC50 of individual entries
Target: COX-1 (Homo sapiens)
Sequence (P23219 24-599): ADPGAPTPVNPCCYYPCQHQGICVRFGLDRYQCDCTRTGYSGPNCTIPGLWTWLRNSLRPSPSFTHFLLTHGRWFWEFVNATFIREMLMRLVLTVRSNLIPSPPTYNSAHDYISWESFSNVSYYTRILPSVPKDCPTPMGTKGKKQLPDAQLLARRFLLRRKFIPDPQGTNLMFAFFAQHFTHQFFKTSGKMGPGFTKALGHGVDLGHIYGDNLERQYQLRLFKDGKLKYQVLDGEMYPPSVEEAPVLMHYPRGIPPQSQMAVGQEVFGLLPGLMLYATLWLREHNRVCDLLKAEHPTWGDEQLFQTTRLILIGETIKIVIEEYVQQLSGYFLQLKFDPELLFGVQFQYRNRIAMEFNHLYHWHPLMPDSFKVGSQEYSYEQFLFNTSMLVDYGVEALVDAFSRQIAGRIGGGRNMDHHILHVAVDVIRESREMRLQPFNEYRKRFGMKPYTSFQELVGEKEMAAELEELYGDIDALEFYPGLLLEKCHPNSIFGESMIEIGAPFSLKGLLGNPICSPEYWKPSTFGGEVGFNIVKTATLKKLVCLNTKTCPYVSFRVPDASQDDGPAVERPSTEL
Experiment: biochemical
Type: biochemical
Conditions: Table III; U937
pIC50: −log10 of the molar value.

Some entries whose results are on file:
molecule: CC1(C)OC(=O)C(Oc2ccccn2)=C1c1ccc(S(C)(=O)=O)cc1
target of assay: COX-1 (Homo sapiens)
pIC50: ~5.00
--
molecule: CS(=O)(=O)c1ccc(C2=C(Sc3ccccc3)C(=O)OC23CCCC3)cc1
target of assay: COX-1 (Homo sapiens)
pIC50: < 5.00
--
molecule: COC1(C)OC(=O)C(Oc2ccc(F)c(F)c2)=C1c1ccc(S(C)(=O)=O)cc1 (stereo not shown) [Example 24c]
target of assay: COX-1 (Homo sapiens)
pIC50: < 5.52

Please look at the following molecule next.
What measured pIC50 goes with `CC1(C)OC(=O)C(Sc2cc(F)cc(F)c2)=C1c1ccc(S(C)(=O)=O)cc1` ?
< 5.00

Data credit: patent US5981576A
